All values here come from patent US6737383B1.

Each entry below lists one item and its recorded Barley (winter) plant response rating (0 to 100 scale) value.
# System: winter barley
# experiment: Test E winter barley
# Assay type: in vivo, Hordeum vulgare
# condition notes: Preemergence, Rate 250 g/ha
Give the figure only, with no unit attached.

Please review the following examples before continuing.
What value of measured Barley (winter) plant response rating (0 to 100 scale) is listed for CC(C)N(C(=O)n1oc(=O)n([C@H](C)c2ccccc2)c1=O)c1ccc(F)cc1F ?
40

What value of measured Barley (winter) plant response rating (0 to 100 scale) is listed for CC(C)N(C(=O)n1oc(=O)n(CC(C)(C)C)c1=O)c1ccc(F)cc1 ?
40

What value of measured Barley (winter) plant response rating (0 to 100 scale) is listed for Cc1cccc(C)c1-n1c(=O)on(C(=O)N(C(C)C)C2C=CCCC2)c1=O (stereo not drawn) ?
70

What value of measured Barley (winter) plant response rating (0 to 100 scale) is listed for CC1CCCCC1n1c(=O)on(C(=O)N(c2ccccc2)C(C)C)c1=O (stereo not drawn) ?
30

What value of measured Barley (winter) plant response rating (0 to 100 scale) is listed for CC(=O)OCCCCn1c(=O)on(C(=O)N(c2ccc(F)cc2)C(C)C)c1=O ?
20

Pending compound:
What value of measured Barley (winter) plant response rating (0 to 100 scale) is listed for CCCCCn1c(=O)on(C(=O)N(c2ccc(F)cc2)C(C)C)c1=O ?
55
